# Tested System: human GcgR (Homo sapiens, UniProt P47871)
# Sequence (P47871 26-477): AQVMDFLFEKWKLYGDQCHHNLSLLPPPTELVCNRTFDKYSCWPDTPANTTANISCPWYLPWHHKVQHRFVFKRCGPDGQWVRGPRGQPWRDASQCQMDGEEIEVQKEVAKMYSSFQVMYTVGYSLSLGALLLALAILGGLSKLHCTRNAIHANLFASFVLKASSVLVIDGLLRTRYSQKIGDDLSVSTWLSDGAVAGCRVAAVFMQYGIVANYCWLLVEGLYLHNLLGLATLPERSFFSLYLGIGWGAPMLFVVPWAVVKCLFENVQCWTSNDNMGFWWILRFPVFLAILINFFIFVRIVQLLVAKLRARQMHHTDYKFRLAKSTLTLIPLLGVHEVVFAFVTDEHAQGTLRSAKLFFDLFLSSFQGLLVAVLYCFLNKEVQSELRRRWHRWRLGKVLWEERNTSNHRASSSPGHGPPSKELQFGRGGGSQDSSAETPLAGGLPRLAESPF
# Test Summary: Functional cAMP activity in the presence of 1% HSA
# Type: cell-based
# Assay Context: read-out: cAMP Rel EC50, hGcgR
Starred links: 1 amine or outer side, 2 acyl side, 3 side chain; linkers in the order of their positions; H or OH if unused. Non-standard residues stand in square brackets, D forms with d. Groups on a side chain read outwards from the residue. *: point of attachment. C18 diacid = O=C(O)CCCCCCCCCCCCCCCCC(=O)*; αMePhe(2-F) = C[C@](N)(Cc1ccccc1F)C(=O)O; γGlu = O=C(O)[C@H](CCC(=O)[*:2])N[*:1]; αMe4Pal = C[C@](N)(Cc1ccncc1)C(=O)O; 4Pal = N[C@@H](Cc1ccncc1)C(=O)O; αMeL = CC(C)C[C@](C)(N)C(=O)O; αMeS = C[C@](N)(CO)C(=O)O; Orn = NCCC[C@H](N)C(=O)O; AEEA = NCCOCCOCC(=O)O; Aib = CC(C)(N)C(=O)O
The following substances are listed with their measured pEC50 values.
Scale: negative log10 of molar concentration, which is what pEC50 denotes.

Please review the entries below; each comes with its answer.
Retrieve pEC50 measured for H-Y[Aib]QGT[αMePhe(2-F)]TSD[4Pal][αMeS]I[αMeL]LD[Orn]K([γGlu-γGlu-C18 diacid])AQ[Aib][Orn]FI[dE]YLSEGGPSSGEPPPSGTE-NH2 [Example 530] and print it.
5.89

Retrieve pEC50 measured for H-Y[Aib]QGTFTSD[4Pal]SQ[αMeL]LDKK([dE-γGlu-C18 diacid])AQ[αMe4Pal]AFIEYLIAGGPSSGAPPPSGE-NH2 [Example 1085] and print it.
5.86

Now turn to the next substance.
Retrieve pEC50 measured for H-Y[Aib]QGTFTSDFS[Orn][αMeL]LDKK([AEEA-γGlu-C18 diacid])AQ[Aib]AFIEWLLEGGSSSGAPPPSGT-NH2 [Example 174] and print it.
6.51
